# key: entry, value: melting point

Consider the following illustrative entries.
c1ccc(COc2ccc3c(c2)CCc2c-3[nH]c3ccc(OCc4ccccc4)cc23)cc1: 177 to 180 °C
O=C(O)c1cccc(Nc2nc(Oc3ccccc3)nc(Oc3cccc([N+](=O)[O-])c3)n2)c1: 225 to 228 °C
O=C(O)Cc1ccc(C2=CCCCC2)cc1: 118 to 120 °C
NC(=O)c1cccc2c1OC(CN1CC=C(c3c[nH]c4ccc(F)cc34)CC1)CO2 (stereo not given): 195 to 197 °C
O=C1c2c(Cl)cccc2-n2cnc(-c3noc(C(F)(F)F)n3)c2[C@@H]2CCCN12: 220 to 221 °C
Cc1cc(Nc2c(C#N)cnc3cc(Br)ccc23)ccc1OCc1ccccn1: 238 to 241 °C

Exercise: Tell me measured melting point for CS(=O)(=O)c1cc(CCC(=O)O)nc(-c2nc(=O)c3ccc(Cl)cc3s2)c1 please.
Key: 229 °C
